System: GST tagged IRAK4 (Homo sapiens (Human))
Sequence (Q9NWZ3 whole entry): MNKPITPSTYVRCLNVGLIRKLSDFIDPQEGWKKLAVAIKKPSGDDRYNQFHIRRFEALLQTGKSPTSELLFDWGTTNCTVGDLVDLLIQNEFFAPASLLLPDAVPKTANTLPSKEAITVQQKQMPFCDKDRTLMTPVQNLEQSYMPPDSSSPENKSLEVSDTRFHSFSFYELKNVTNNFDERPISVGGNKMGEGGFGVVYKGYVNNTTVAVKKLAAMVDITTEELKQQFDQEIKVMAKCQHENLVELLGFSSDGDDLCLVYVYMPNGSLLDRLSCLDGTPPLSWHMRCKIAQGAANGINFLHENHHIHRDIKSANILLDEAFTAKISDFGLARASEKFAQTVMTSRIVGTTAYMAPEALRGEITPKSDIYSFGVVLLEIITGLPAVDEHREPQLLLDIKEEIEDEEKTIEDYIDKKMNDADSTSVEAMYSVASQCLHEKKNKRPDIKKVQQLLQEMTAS
pIC50: −log10 of the molar value. Counter-ions that a name gives are not always drawn.
Classification scheme (pIC50): low bin = under 7, mid bin = from 7 up to 8, high bin = 8 and over

Molecule	Qualitative label
N[C@H]1CCCC[C@H]1Nc1cnc2scc(C(=O)Nc3cscc3Cl)c2n1 [Example 110, trifluoroacetate]	high bin
O=C(Nc1ccsc1C(F)(F)F)c1csc2ncc(N3CCCNCC3)nc12	low bin
O=C(Nc1ccccc1C(F)F)c1csc2ncc(N3C[C@H]4CC[C@@H]3CN4)nc12 (single isomer, unassigned) [Example 104, trifluoroacetate]	low bin
N#Cc1ccccc1NC(=O)c1csc2ncc(N[C@@H]3CCCNC3)nc12 [Example 85, trifluoroacetate]	high bin
O=C(Nc1cscc1Br)c1csc2ncc(N3CCCNCC3)nc12 [Example 48, trifluoroacetate]	low bin
O=C(Nc1ccccc1Cl)c1csc2ncc(N3CCCNCC3)nc12 [Example 91, trifluoroacetate]	low bin

Incoming: Would you mind sorting Cn1cc(NC(=O)c2csc3ncc(N[C@@H]4CCCNC4)nc23)c(C(F)F)n1 into the appropriate category?
Outgoing: high bin

Incoming: Would you mind sorting Cn1cc(NC(=O)c2csc3ncc(N[C@@H]4CCCCNC4)nc23)c(C(F)F)n1 (single isomer, unassigned) [Example 33, trifluoroacetate] into the appropriate category?
Outgoing: high bin

Incoming: Would you mind sorting N[C@H]1CCCC[C@H]1Nc1cnc2scc(C(=O)Nc3ccccc3Br)c2n1 [Example 87, trifluoroacetate] into the appropriate category?
Outgoing: high bin

Incoming: Would you mind sorting Cn1cc(NC(=O)c2csc3ncc(N[C@@H]4CCCC(F)(F)[C@@H]4N)nc23)c(C#N)n1 [Example 36, trifluoroacetate] into the appropriate category?
Outgoing: mid bin

Incoming: Would you mind sorting N#Cc1ccccc1NC(=O)c1csc2ncc(N3CCCNCC3)nc12 into the appropriate category?
Outgoing: low bin

Incoming: Would you mind sorting Cn1cc(NC(=O)c2csc3ncc(N4C[C@@H]5CC[C@H]4CN5)nc23)c(C#N)n1 (single isomer, unassigned) [Example 26, trifluoroacetate] into the appropriate category?
Outgoing: mid bin

Incoming: Would you mind sorting Cn1cc(NC(=O)c2csc3ncc(N4CCNCC4)nc23)c(C(F)(F)F)n1 [Example 2, trifluoroacetate] into the appropriate category?
Outgoing: mid bin

Incoming: Would you mind sorting Cn1cc(NC(=O)c2csc3ncc(N[C@@H]4CCCNC4)nc23)c(C(F)(F)F)n1 [Example 4, trifluoroacetate] into the appropriate category?
Outgoing: high bin

Incoming: Would you mind sorting N[C@@H]1[C@H](Nc2cnc3scc(C(=O)Nc4ccccc4C(F)F)c3n2)CCCC1(F)F [Example 106, trifluoroacetate] into the appropriate category?
Outgoing: low bin

Incoming: Would you mind sorting O=C(Nc1ccsc1Br)c1csc2ncc(N3CCCNCC3)nc12 [Example 51, trifluoroacetate] into the appropriate category?
Outgoing: low bin

Incoming: Would you mind sorting N#Cc1ccccc1NC(=O)c1csc2ncc(N3C[C@H]4CC[C@@H]3CN4)nc12 (single isomer, unassigned) [Example 98, trifluoroacetate] into the appropriate category?
Outgoing: low bin

----------
System: GST tagged IRAK4 (Homo sapiens (Human))
Where a name gives a salt, the structure may show the parent alone.
Classification scheme (IC50): group A: < 30 nM; group B: ≥ 30 nM and < 800 nM; group C: ≥ 800 nM

Compound	System	Qualitative label
N#Cc1ccccc1NC(=O)c1csc2ncc(N3CCC[C@@H](N)C3)nc12 [Example 84, trifluoroacetate]	GST tagged IRAK4 (Homo sapiens (Human))	group B

Incoming: Would you mind sorting N[C@@H]1[C@H](Nc2cnc3scc(C(=O)Nc4ccsc4Cl)c3n2)CCCC1(F)F [Example 60] into the appropriate category?
Outgoing: group C

Incoming: Would you mind sorting O=C(Nc1ccccc1Br)c1csc2ncc(N3CCCNCC3)nc12 [Example 82, trifluoroacetate] into the appropriate category?
Outgoing: group C

Incoming: Would you mind sorting Cn1cc(NC(=O)c2csc3ncc(N4CCCNCC4)nc23)c(C#N)n1 [Example 28, trifluoroacetate] into the appropriate category?
Outgoing: group A

Incoming: Would you mind sorting N[C@H]1CCCC[C@H]1Nc1cnc2scc(C(=O)Nc3ccsc3Cl)c2n1 [Example 56, trifluoroacetate] into the appropriate category?
Outgoing: group A

Incoming: Would you mind sorting Cn1cc(NC(=O)c2csc3ncc(N4CCCNCC4)nc23)c(Cl)n1 [Example 18, trifluoroacetate] into the appropriate category?
Outgoing: group A

Incoming: Would you mind sorting Cn1cc(NC(=O)c2csc3ncc(N4CC5CCC4CN5)nc23)c(C(F)(F)F)n1 (centres unmarked) [Example 7] into the appropriate category?
Outgoing: group B

Incoming: Would you mind sorting N#Cc1sccc1NC(=O)c1csc2ncc(N3C[C@@H]4CC[C@H]3CN4)nc12 (single isomer, unassigned) [Example 69, trifluoroacetate] into the appropriate category?
Outgoing: group B

Incoming: Would you mind sorting O=C(Nc1ccccc1C(F)(F)F)c1csc2ncc(N3CCCNCC3)nc12 [Example 90, trifluoroacetate] into the appropriate category?
Outgoing: group C

Incoming: Would you mind sorting O=C(Nc1ccccc1Cl)c1csc2ncc(N3C[C@H]4CC[C@@H]3CN4)nc12 (single isomer, unassigned) [Example 100, trifluoroacetate] into the appropriate category?
Outgoing: group B

Reference source for all entries: patent US10040802B2
